Where these numbers come from: ChEMBL document CHEMBL1142297

# targetUnderTest: Voltage-gated inwardly rectifying potassium channel KCNH2 (Homo sapiens)
# Sequence (Q12809 whole entry): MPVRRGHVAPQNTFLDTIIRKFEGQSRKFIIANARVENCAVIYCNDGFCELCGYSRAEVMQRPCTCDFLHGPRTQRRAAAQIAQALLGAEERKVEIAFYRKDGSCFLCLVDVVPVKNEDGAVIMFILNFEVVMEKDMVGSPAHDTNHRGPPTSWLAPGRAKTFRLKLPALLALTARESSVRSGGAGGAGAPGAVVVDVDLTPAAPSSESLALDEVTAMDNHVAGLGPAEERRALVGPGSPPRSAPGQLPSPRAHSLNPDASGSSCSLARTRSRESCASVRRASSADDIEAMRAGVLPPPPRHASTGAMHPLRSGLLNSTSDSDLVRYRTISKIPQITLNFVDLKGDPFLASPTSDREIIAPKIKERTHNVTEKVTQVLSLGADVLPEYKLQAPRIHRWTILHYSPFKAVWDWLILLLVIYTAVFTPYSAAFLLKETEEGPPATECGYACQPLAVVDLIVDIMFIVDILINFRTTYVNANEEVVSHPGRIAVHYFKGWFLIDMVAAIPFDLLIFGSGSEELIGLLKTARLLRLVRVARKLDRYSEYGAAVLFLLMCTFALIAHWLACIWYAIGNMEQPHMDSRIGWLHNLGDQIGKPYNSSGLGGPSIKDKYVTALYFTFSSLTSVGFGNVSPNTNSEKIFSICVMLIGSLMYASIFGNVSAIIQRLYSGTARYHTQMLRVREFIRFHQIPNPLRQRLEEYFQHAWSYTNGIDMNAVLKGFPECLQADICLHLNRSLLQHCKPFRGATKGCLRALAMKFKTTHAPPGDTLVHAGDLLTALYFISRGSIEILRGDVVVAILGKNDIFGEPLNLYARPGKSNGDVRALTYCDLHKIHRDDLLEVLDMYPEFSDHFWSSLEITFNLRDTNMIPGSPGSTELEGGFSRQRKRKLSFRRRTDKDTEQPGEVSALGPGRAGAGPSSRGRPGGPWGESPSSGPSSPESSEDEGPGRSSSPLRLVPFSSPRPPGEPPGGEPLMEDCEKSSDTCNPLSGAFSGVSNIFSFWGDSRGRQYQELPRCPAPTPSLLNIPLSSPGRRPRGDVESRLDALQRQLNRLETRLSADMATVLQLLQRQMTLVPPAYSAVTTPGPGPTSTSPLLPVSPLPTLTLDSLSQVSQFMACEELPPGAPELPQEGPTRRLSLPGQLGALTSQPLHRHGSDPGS
# assayDetails: Inhibition of human ERG expressed in HEK cells assessed as effect on electric current by patch clamp assay
measurementLabel: IC50

GET /values?item= `COc1cc(CC(=O)Nc2cc(-n3nc(C)cc3C)nc(-c3ccc(C)o3)n2)cc(OC)c1` &system= Voltage-gated inwardly rectifying potassium channel KCNH2 (Homo sapiens) returns IC50: > 3 µM

====

Provide the recorded CLint scaled for the entries that follow.
# assayDetails: Metabolic stability in human liver microsomes
# Assay type: ADME, Microsome
Entry rule: numbers only, all in mL/min/kg.

Lab note: `COc1cc(CC(=O)Nc2cc(-n3nc(C)cc3C)nc(-c3ccc(C)o3)n2)cc(OC)c1` gave CLint scaled of 78

GET /value?item= `Cc1cc(C)n(-c2cc(NC(=O)Cc3ccc(S(C)(=O)=O)cc3)nc(-c3ccccn3)n2)n1` &field=CLint scaled returns 7

Value of measured CLint scaled for the entry `CCOc1ccc(CC(=O)Nc2cc(-n3nc(C)cc3C)nc(-c3ccccn3)n2)cc1OC` : 47

Looking up `Cc1cc(C)cc(CC(=O)Nc2cc(-n3nc(C)cc3C)nc(-c3ccccn3)n2)c1` , I found its CLint scaled recorded as 113
